Recorded pIC50 values for a group of molecules are listed next.
- targetDesc: CDK1/cyclin B
- assayExplanation: CDK1/cyclin B kinase assay (histone H1, 15 μM ATP)
- particulars: 30° C., 30 min
A value of pIC50 is the negative decimal logarithm of a concentration given in moles per litre.

Known results for molecules:
>>> print(df.to_string())
                                   molecule  measuredvalue
0  CN1CCN(CCO/N=C2/C(=C3/C(=O)Nc4cc(Br)ccc43)Nc3ccccc32)CC1 [Cpd 12]           6.40
1  O=C1Nc2cc(Br)ccc2/C1=C1/Nc2ccccc2/C1=N\OCCN1CCN(CCOCCO)CC1 [Cpd 26]           6.30

// query I have this molecule here, CCN(CC)CCO/N=C1/C(=C2/C(=O)Nc3cc(Br)ccc32)Nc2ccccc21 [Cpd 17] , and I need its recorded pIC50.
// result 6.72

// query I have this molecule here, O=C1Nc2cc(Br)ccc2/C1=C1/Nc2ccccc2/C1=N\OCC(O)CO (centres unmarked) [Cpd 3] , and I need its recorded pIC50.
// result 6.96
